assay_procedure: Toxicity and tolerability by oral route
Format: in vivo, small rodents; rat; mouse; man
details: in vivo; small rodents, oral route
attribute_measured: LD50

>>> df
                                   molecule  observed_result
0  O=C(NCCCl)Sc1ncnc2nc[nH]c12 [Substance Ia, 6-[N-(2-Chloroethyl)carbamoyl]thiopurine]     ≥ 3000 mg/kg
